- Test system: male Cynomolgus monkeys (Macaca fascicularis)
- Measurement Description: Erection monitoring after single intracavernosal dose
- Type: in vivo
- Set-up: key: 0: no response; erection but transient—less than 1 minute; 2: erection lasting at least 1 minute but less than 5 minutes; 3: erection lasting at least 5 minutes but less than 7 minutes; 4: erection lasting longer than 7 minutes
- Condition Parameters: 10 mg/ml intracavernosal, monkey 11590M
Endpoint Label: Duration Score

> print(dat)
                                   compound                             tested.target  endpoint.label  assay.value
1  Cn1cc([S+]([O-])CCl)c(=O)c2ccc(F)cc21 (racemic)  male Cynomolgus monkeys (Macaca fascicularis)  Duration Score            0

----------
- Tested on: male Cynomolgus monkeys (Macaca fascicularis)
- Measurement Description: Erection monitoring after single intracavernosal dose
- Format: in vivo
- Condition Parameters: 10 mg/ml intracavernosal, monkey 11590M
Overview of reported Duration Erection across a group of molecules:
Endpoint Label: Duration Erection (min)

> print(dat)
                                   molecule                             tested.target     endpoint.label  unit.of.measurement  assay.value
1  Cn1cc([S@+]([O-])CCl)c(=O)c2ccc(F)cc21 (single isomer, unassigned) [(+)-enantiomer of monochloroflosequinan]  male Cynomolgus monkeys (Macaca fascicularis)  Duration Erection                  min            8
2  Cn1cc([S+]([O-])C(F)F)c(=O)c2ccc(F)cc21 (centres unmarked)  male Cynomolgus monkeys (Macaca fascicularis)  Duration Erection                  min            6
3  Cn1cc([S+]([O-])CC(=O)O)c(=O)c2ccc(F)cc21 (centres unmarked)  male Cynomolgus monkeys (Macaca fascicularis)  Duration Erection                  min            2
4  Cn1cc([S@@+]([O-])CCl)c(=O)c2ccc(F)cc21 (single isomer, unassigned) [(−)-enantiomer of monochloroflosequinan]  male Cynomolgus monkeys (Macaca fascicularis)  Duration Erection                  min            7
5  Cn1cc([S+]([O-])C(Cl)Cl)c(=O)c2ccc(F)cc21 (centres unmarked)  male Cynomolgus monkeys (Macaca fascicularis)  Duration Erection                  min            7

----------
- System: male Cynomolgus monkeys (Macaca fascicularis)
- Measurement Description: Erection monitoring after single intracavernosal dose
- Type: in vivo
- Set-up: key: 0: no response; erection but transient—less than 1 minute; 2: erection lasting at least 1 minute but less than 5 minutes; 3: erection lasting at least 5 minutes but less than 7 minutes; 4: erection lasting longer than 7 minutes
- Condition Parameters: 10 mg/ml intracavernosal, monkey 11543M
Endpoint Label: Duration Score

> print(dat)
                                   compound  assay.value
1  Cn1cc([S@@+]([O-])CCl)c(=O)c2ccc(F)cc21 (single isomer, unassigned) [(−)-enantiomer of monochloroflosequinan]            0
2  Cn1cc([S+]([O-])CF)c(=O)c2ccc(F)cc21 (racemic)            0
3  Cn1cc([S+]([O-])CCl)c(=O)c2ccc(F)cc21 (racemic)            0

----------
- Tested on: male Cynomolgus monkeys (Macaca fascicularis)
- Measurement Description: Erection monitoring after single intracavernosal dose
- Type: in vivo
- Condition Parameters: 10 mg/ml intracavernosal, monkey 11590M; Erection Score=2D+O
Overview of reported Erection Score across a group of compounds:
Endpoint Label: Erection Score

> print(dat)
                                   compound                             tested.target  endpoint.label  assay.value
1  Cn1cc([S+]([O-])C(F)F)c(=O)c2ccc(F)cc21 (stereo not shown) [difluoroflosequinan]  male Cynomolgus monkeys (Macaca fascicularis)  Erection Score           10
2  Cn1cc([S@+]([O-])CCl)c(=O)c2ccc(F)cc21 (single isomer, unassigned) [(+)-enantiomer of monochloroflosequinan]  male Cynomolgus monkeys (Macaca fascicularis)  Erection Score           12
3  Cn1cc([S@@+]([O-])CCl)c(=O)c2ccc(F)cc21 (single isomer, unassigned) [(−)-enantiomer of monochloroflosequinan]  male Cynomolgus monkeys (Macaca fascicularis)  Erection Score           10
4  Cn1cc([S+]([O-])CC(=O)O)c(=O)c2ccc(F)cc21 (stereo not shown) [carboxyflosequinan]  male Cynomolgus monkeys (Macaca fascicularis)  Erection Score            8
5  Cn1cc([S+]([O-])C(Cl)Cl)c(=O)c2ccc(F)cc21 (stereo not shown) [dichloroflosequinan]  male Cynomolgus monkeys (Macaca fascicularis)  Erection Score           12
6  Cn1cc([S+]([O-])CCl)c(=O)c2ccc(F)cc21 (racemic) [monochloroflosequinan]  male Cynomolgus monkeys (Macaca fascicularis)  Erection Score            0
7  Cn1cc([S+]([O-])CF)c(=O)c2ccc(F)cc21 (racemic) [monofluoroflosequinan]  male Cynomolgus monkeys (Macaca fascicularis)  Erection Score           12

----------
- System: male Cynomolgus monkeys (Macaca fascicularis)
- Measurement Description: Erection monitoring after single intracavernosal dose
- Format: in vivo
- Parameters: key: 0: no response; erection but transient—less than 1 minute; 2: erection lasting at least 1 minute but less than 5 minutes; 3: erection lasting at least 5 minutes but less than 7 minutes; 4: erection lasting longer than 7 minutes
- Condition Parameters: 10 mg/ml intracavernosal, monkey 11543M
Overview of reported Duration Score across a group of molecules:
Endpoint Label: Duration Score

> print(dat)
                                   molecule  assay.value
1  Cn1cc([S+]([O-])CC(=O)O)c(=O)c2ccc(F)cc21 (stereo not shown) [carboxyflosequinan]            0
2  Cn1cc([S@+]([O-])CCl)c(=O)c2ccc(F)cc21 (single isomer, unassigned) [(+)-enantiomer of monochloroflosequinan]            0
3  Cn1cc([S+]([O-])C(F)F)c(=O)c2ccc(F)cc21 (stereo not shown) [difluoroflosequinan]            0
